Test system: IL-8 receptor (purified human neutrophils)
Assay: radio labeled IL-8 receptor binding assay in purified human neutrophils using I125-IL-8 as ligand
Conditions: Table 2; inhibition of I125-IL-8 (0.125 nM) binding to human neutrophils, 37° C. 60 minutes; read-out: IC50
pIC50: −log10 of the molar value.
metric: pIC50

Guide cases for pIC50, answers given:
{"structureAsSmiles": "CN1CCN(CCCOc2ccccc2-c2cc(-c3ccc(Cl)cc3)on2)CC1", "pIC50": 5.25}
{"structureAsSmiles": "CN(C)CCCOc1ccc(-c2cc(-c3ccc(F)cc3)on2)cc1", "pIC50": 5.51}
{"structureAsSmiles": "CCN(CC)CCCOc1ccccc1-c1cc(-c2ccccc2)on1", "pIC50": 5.19}
{"structureAsSmiles": "CN(C)CCCCOc1ccc(-c2cc(-c3ccc(Cl)cc3)on2)cc1", "pIC50": 5.41}
{"structureAsSmiles": "CN(C)CCCOc1ccc(-c2noc(-c3ccccc3)c2Cl)cc1", "pIC50": 5.22}
{"structureAsSmiles": "CN(C)CCCOc1ccc(-c2cc(-c3ccc(Cl)cc3)on2)cc1", "pIC50": 5.57}
{"structureAsSmiles": "Cc1ccc(-c2cc(-c3cccc(OCCCN(C)C)c3)no2)cc1", "pIC50": 5.29}
{"structureAsSmiles": "CN1CCN(CCCOc2ccc(-c3cc(-c4ccccc4)on3)cc2)CC1", "pIC50": 5.21}
{"structureAsSmiles": "CN1CCN(CCCCOc2ccccc2-c2cc(-c3ccc(Cl)cc3)on2)CC1", "pIC50": 4.96}
{"structureAsSmiles": "CN1CCN(CCCOc2ccccc2-c2cc(-c3ccccc3)on2)CC1", "pIC50": 4.92}

a = Cc1ccc(-c2cc(-c3ccc(OCCCN(C)C)cc3)no2)cc1
b = CN(C)CCCOc1cccc(-c2cc(-c3ccc(Cl)cc3)on2)c1
Request: // task: argmin of pIC50 over [ a , b ] Indicate which entry you chose by stating its label.
Response: b
(b: 5.09, a: 5.29)

A = CN(C)CCCOc1ccccc1-c1cc(-c2ccc(Cl)cc2)on1
B = CN(C)CCCOc1cccc(-c2cc(-c3ccccc3)on2)c1
C = CN1CCN(CCCOc2ccc(-c3cc(-c4ccc(Cl)cc4)on3)cc2)CC1
Request: Exam item: list the entries in increasing order of pIC50. Order the labels as requested and give them as your answer.
Response: B, A, C
